Provide the recorded pKi for the entries that follow.
Target: DabiOBP14
Format: binding, Dioryctria abietella
Details: competitive displacement of 1-NPN; three replicates; mean ± SE; read-out: OBP14 Ki (dissociation constant)
Bear in mind: pKi is minus log10 of a mol/L concentration; give just that figure.

Given the entry CCOCn1c(-c2ccc(Cl)cc2)c(C#N)c(Br)c1C(F)(F)F [Chlorfenapyr] , report its measured pKi.
5.08

Endpoint output: pKi of CCCCC/C=C\C=C\C(=O)OCC [Ethyl-(2E,4Z)-decadienoate] . Value?
5.19

pKi for CCOP(=S)(OCC)O/N=C(\C#N)c1ccccc1 [Phoxim] ?
5.62

What value of measured pKi is listed for CCOP(=S)(OCC)Oc1nc(Cl)c(Cl)cc1Cl [Chlorpyrifos] ?
5.34

Item CC(=O)/C=C/C1=C(C)CCCC1(C)C [β-Ionone] has what recorded pKi?
5.08
